test target: human CCR7 (Homo sapiens, UniProt P32248)
Construct: expressed in transfected cells
Sequence (P32248 25-378): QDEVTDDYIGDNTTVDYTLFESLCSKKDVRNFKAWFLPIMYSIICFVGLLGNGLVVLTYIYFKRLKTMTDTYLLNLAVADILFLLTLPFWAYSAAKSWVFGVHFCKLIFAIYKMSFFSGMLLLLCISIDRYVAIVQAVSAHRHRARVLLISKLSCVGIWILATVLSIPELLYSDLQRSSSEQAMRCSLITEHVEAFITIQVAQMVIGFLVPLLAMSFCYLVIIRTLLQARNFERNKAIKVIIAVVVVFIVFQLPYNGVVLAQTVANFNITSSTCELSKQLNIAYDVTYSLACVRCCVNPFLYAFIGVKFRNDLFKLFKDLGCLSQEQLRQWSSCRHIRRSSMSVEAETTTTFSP
experiment: CCL19-induced calcium mobilization assay, U87.CD4 cells expressing CCR7
Format: cell-based
recorded conditions: CCL19-induced calcium signaling; read-out: IC50 [μM] block CCL19 induced calcium signaling
experimental readout: IC50

Entry under review: `FC(F)(F)c1cc(CNC(=S)NCc2ccccc2)cc(C(F)(F)F)c1` . Reported IC50?
> 50 µM

Further cases:
What value of IC50 has been reported for the following molecule? `O=C(CCCc1ccccc1)N[C@H]1CCN(CC(F)(F)F)C1=O`
> 50 µM

Now the same for `CCOC[C@H]1CCN(C(=O)Nc2cccn(CC(F)(F)F)c2=O)C1`
> 50 µM

----------
Decoy – 0 Active – 1 for assorted compounds
test target: human CCR7 (Homo sapiens)
Construct: expressed in transfected cells
experiment: CCL19-induced calcium mobilization assay, U87.CD4 cells expressing CCR7
Assay type: cell-based
recorded conditions: classification as decoy or active on CCR7
Lab note: jot down the number only; don't add units.

Before answering, review these 10 worked examples.
What value of Decoy – 0 Active – 1 has been reported for the following compound? Cc1ccc(N2C(=O)C3C(C(=O)O)NC(c4ccccc4O)C3C2=O)cc1 (centres unmarked) [C186]
0

Could you do the same for O=C(NC1CC(C(=O)O)c2ccccc21)C1CCCN(C(=O)N2CCCC2)C1 (centres unmarked) [C197] , please?
0

Queued: COc1ccc(S(=O)(=O)N(CC(=O)NCc2ccccn2)Cc2ccccc2)cc1 [C259]
0

What about COc1cccc(C2CC(O)CN2Cc2nc3ccccc3[nH]2)c1 (centres unmarked) [C279, COc1cccc(C2CC(O)CN2Cc2nc3ccccc3[nH]2)c1] ?
0

Would you mind doing O=c1oc2ccccc2n1CCCN1CCCC1c1ccc(O)cc1 (centres unmarked) [C189, O=c1oc2ccccc2n1CCC[NH+]1CCCC1c1ccc(O)cc1] as well?
0

Consider next the compound Cc1cccc(-c2cccc(C(=O)N3CC(O)CC3C(=O)O)c2)c1 (centres unmarked) [C187] in the same way.
0

Moving on to CCc1ccc(S(=O)(=O)NC2Cc3cc(C(=O)NC(C)C)nn3C2)cc1 (centres unmarked) [C241]
0

Query O=C(NC1CCC(C(=O)N2CCCCC2)C1)NC1C2Cc3cc(F)ccc3C21 (centres unmarked) [C227] next
0

Entry O=C(O)CN1C(=O)NC2(CCCc3ccccc32)C1=O (centres unmarked) [C199, O=C([O-])CN1C(=O)NC2(CCCc3ccccc32)C1=O] please
0

Now this one: COc1ccccc1NC(=O)CN(c1ccccc1)S(=O)(=O)c1ccc(OC)c(OC)c1 [C235]
0

Further cases:
Returns the measured Decoy – 0 Active – 1 for the input compound. Input: CC[C@@H](NC(=O)c1cc(-c2cccc(OC)c2)n[nH]1)c1nc(C)c(C)s1 [C159]
0

Same for CC1CN(C(=O)C(C)N2CCC(NS(=O)(=O)c3ccccc3)CC2)CC(C)O1 (centres unmarked) [C272]
0

Cc1ccc(S(=O)(=O)N(C)c2ccccc2C(=O)NCc2ccco2)cc1 [C240] ?
0

Request: O=C(NCc1ccccc1N1CCOCC1)c1nc2ccccc2c(=O)[nH]1 [C201]
0

Input NC(=O)Nc1cccc(C(=O)NCc2ccccc2Cl)c1 [C173, NC(=O)Nc1cccc(C(=O)NCc2ccccc2Cl)c1]
0

Would you mind doing O=C(Nc1ccc(Cl)cc1Cl)N1CC(O)C(F)C1 (centres unmarked) [C183, O=C(Nc1ccc(Cl)cc1Cl)N1CC(O)C(F)C1] as well?
0

Then this compound: COc1cccc(N(CC(=O)N2CCC(C(N)=O)CC2)S(=O)(=O)c2ccc(C)cc2)c1 [C253]
0

----------
test target: human CCR7 (Homo sapiens)
Construct: expressed in transfected cells
experiment: CCL19-induced calcium mobilization assay, U87.CD4 cells expressing CCR7
Type: cell-based
recorded conditions: CCL19 induced calcium signaling; read-out: IC50 [μM] block CCL19 induced calcium signaling
experimental readout: IC50

// solved cases for IC50 follow
Identify the measured IC50 of CCCc1ccc(S(=O)(=O)NC2COc3ccc(OC)cc3C2)cc1 (stereo not shown) [C254] for human CCR7 (Homo sapiens).
> 50 µM

Request: Cc1oc2ccccc2c1CNC(=O)N1CCC(C)(CO)CC1 [C167, Cc1oc2ccccc2c1CNC(=O)N1CCC(C)(CO)CC1]
> 50 µM

Quick one: O=c1oc2ccccc2n1CCCN1CCCC1c1ccc(O)cc1 (stereo not shown) [C189, O=c1oc2ccccc2n1CCC[NH+]1CCCC1c1ccc(O)cc1]
> 50 µM

Turning now to a further molecule:
Param readout = IC50; param system = human CCR7 (Homo sapiens); param query = O=C(NCC(O)(c1ccccc1)C(F)(F)F)c1cc(=O)c2ccccc2o1 (stereo not shown) [C208] ; response: value
> 50 µM

----------
test target: human CCR7 (Homo sapiens)
Construct: expressed in transfected cells
experiment: CCL19-induced calcium mobilization assay, U87.CD4 cells expressing CCR7
Assay type: cell-based
recorded conditions: CCL19-induced calcium signaling; read-out: IC50 [μM] block CCL19 induced calcium signaling
// reported IC50 per item

Below, 2 molecules whose answers are already recorded.
Give IC50 (human CCR7 (Homo sapiens)) of the following molecule: CN(C)C(=O)c1cccc(NC(=O)NCCc2ccccn2)c1 [C076, CN(C)C(=O)c1cccc(NC(=O)NCCc2ccccn2)c1]
> 10 µM

Can you check COc1ccc(C)cc1NC(=S)N1CCN(c2ccccc2O)CC1 [C026, COc1ccc(C)cc1NC(=S)N1CCN(CC1)c1ccccc1O] next?
> 30 µM

Next, consider the following molecule.
Fill in the recorded IC50 for this molecule, with human CCR7 (Homo sapiens) as test system: CCOC(=O)NC(=S)Nc1cc(C)nc(C)n1 [C046, CC1=NC(NC(NC(OCC)=O)=S)=CC(C)=N1]
> 30 µM

----------
test target: human CCR7 (Homo sapiens)
Construct: expressed in transfected cells
experiment: CCL19-induced calcium mobilization assay, U87.CD4 cells expressing CCR7
Assay type: cell-based
recorded conditions: classification of tested compounds as decoy or active
Decoy – 0 Active – 1 for assorted molecules
// return just the number, without any unit appended

Given the molecule OCc1ccccc1NC(=S)NCc1ccccc1 [C038, OCc1ccccc1NC(=S)NCc1ccccc1] , what is its reported Decoy – 0 Active – 1?
0

Now consider CCOC(=O)c1sc2ncnc(NC[C@H]3CCCO3)c2c1C [C103, CCOC(=O)c1sc2ncnc(NC[C@H]3CCCO3)c2c1C] .
0

Also COC(=O)/C(=C\NC(=S)N/C=C(/OC(=N)c1ccccc1)C(=O)OC)NC(=O)c1ccccc1 [C042] ?
0

Now look at this one.
// returns reported Decoy – 0 Active – 1 for input NC(=O)C1CC(O)CN1C(=S)Nc1ccc(S(=O)(=O)N2CCOCC2)cc1 (stereo not shown) [C028]
0

----------
test target: human CXCR2 (Homo sapiens)
Sequence (P25025 whole entry): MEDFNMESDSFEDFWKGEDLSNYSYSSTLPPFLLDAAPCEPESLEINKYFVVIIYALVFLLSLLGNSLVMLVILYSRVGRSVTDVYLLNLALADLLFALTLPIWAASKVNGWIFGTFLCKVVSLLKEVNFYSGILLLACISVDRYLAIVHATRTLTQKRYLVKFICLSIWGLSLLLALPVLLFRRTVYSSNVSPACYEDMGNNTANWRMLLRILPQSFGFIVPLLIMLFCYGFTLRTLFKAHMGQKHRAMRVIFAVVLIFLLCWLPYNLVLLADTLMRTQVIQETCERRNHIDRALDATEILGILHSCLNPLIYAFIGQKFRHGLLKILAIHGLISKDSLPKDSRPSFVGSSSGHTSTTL
experiment: CXCL8-induced calcium mobilization assay, U87.CD4 cells expressing CXCR2
recorded conditions: Mean ± SD of at least three independent experiments; read-out: IC50, CXCL8-CXCR2 Ca2+ response
pIC50: −log10 of the molar value.
experimental readout: pIC50

What value of pIC50 has been recorded for this entry: `FC(F)(F)c1cc(NC(=S)Nc2cc(C(F)(F)F)cc(C(F)(F)F)c2)cc(C(F)(F)F)c1`
4.74 to 5.52

----------
test target: human CCR7 (Homo sapiens)
Construct: expressed in transfected cells
experiment: CCL19-induced calcium mobilization assay, U87.CD4 cells expressing CCR7
Assay type: cell-based
recorded conditions: CCL19-induced calcium signaling; read-out: IC50 [μM] block CCL19 induced calcium signaling
experimental readout: IC50

# annotated cases, reported IC50 shown
Given `O=C([C@@H]1C[C@@H]1c1ccco1)N1CCC[C@H]1Cc1ccc(F)cc1` , state its recorded IC50.
> 50 µM

Try this molecule next: `Cc1ccc(NC(=O)CN(C)C[C@@H]2CCCO2)cc1[N+](=O)[O-]`
> 50 µM

Please give the result for Cc1nc(CCCC(=O)N[C@H]2CCN(C(C)C)C2=O)cs1 [C090, Cc1nc(CCCC(=O)N[C@H]2CCN(C(C)C)C2=O)cs1] too.
> 50 µM

# repeat for `Cc1cccc([C@H](NC(=O)c2cc(-c3ccccc3F)n[nH]2)C2CC2)n1`
> 50 µM

What do you have for `Cc1cccc2c(=O)n(CCC(=O)N[C@@H](c3ccccc3)C(C)C)cnc12` ?
> 50 µM

Would you mind doing NC(=O)C1CC(O)CN1C(=S)Nc1ccc(S(=O)(=O)N2CCOCC2)cc1 (stereo not drawn) as well?
> 30 µM

Another: COc1ccc(CNc2c(NC(C)c3ccccc3)c(=O)c2=O)cc1OC (stereo not drawn)
> 50 µM

Continue with `CNC(=O)c1cccc(NC(=O)NCC(C)(C)c2cccs2)c1C`
> 50 µM

Now for a further molecule.
I'd like to know its IC50. The molecule in question is `Cn1ccnc1[C@H](NC1=NS(=O)(=O)c2ccccc21)c1cccc(F)c1`
> 50 µM
